System: BT-549 breast
Assay: NCI-60 one-dose screen, 48 h
Conditions: 10 µM unless noted
Method: Growth inhibition of the BT-549 human tumor cell line is measured as a screen for anti-cancer activity. Cells are grown in 96 well plates and exposed to the test compound for 48 hours. Compounds are tested at a single concentration, which is 10^-5 M for most compounds. The reported endpoint is percent growth (GI% or GIPRCNT), where numbers from 0 - 100% represent growth inhibition, and numbers from -100% - 0 represent cell death. For example, a value of 40 represents 60% growth inhibition. […]
The panel holds about 83,000 compounds, 20% with a hit somewhere; the sample as a whole holds those more often. Calls of active or inactive are those of the source. How the source made its calls: active means growth percent below 10; inactive means the rest.
// allowed return values: Y for active, N for inactive

Reference set (8 entries):
CN1CCN(CCOc2ccc(-c3cnc4c(-c5cccc(F)c5)cnn4c3)cc2)CC1 = N
CC(Cc1ccco1)C(=O)NC(N)=O (centres undefined) = N
O=C1c2ccccc2NC(c2cn(-c3ccccc3)nc2-c2cccnc2)N1Cc1ccccc1 (centres undefined) = N
COC(=O)C(N)CSC(c1ccccc1)(c1ccccc1)c1ccccc1 (centres undefined) = N
COC(=O)CCCCCn1c2ccccc2c2c3c(c4c5ccccc5[nH]c4c21)C(=O)N(O)C3=O = N
Cc1nn2c(-c3nc4cc(Cl)c(Cl)cc4[nH]3)c(-c3ccc(F)cc3)nc2s1 = N
CC1(n2nnnc2N2CCCN(c3ncccc3N)CC2)CCC1 = N
Cc1ccc(N(CC(=O)Nc2ccc(S(=O)(=O)NC3CCN(C)CC3)cc2)S(=O)(=O)c2ccc(Cl)cc2)cc1 = N

Identify the outcome logged in this assay for the compound shown: Oc1cccc2ccc(N/N=C/c3cc(CN4CCCCC4)c(O)c4ncccc34)nc12 N

Test call, this compound: CCCCC[C@H]1C/C=C2/C(=O)C(Cl)=C[C@@H]2C/C=C\CCCC(=O)O1 Y

* * *

tested on: A498 renal; experiment: NCI-60 one-dose screen, 48 h; conditions: 10 µM unless noted
Compounds without any hit were thinned out: in the full panel of roughly 83,000, 20% have a hit. The source made the active and inactive calls. The calls were made as follows: active = growth percent below 10; inactive = the rest.
Your response should consist of one outcome taken from active, inactive

Some solved cases for reference:
COc1ccc2[nH]c(-c3ccc(Cl)cc3)cc(=O)c2c1 = inactive
CC(CNc1nc(Nc2ccc(Cl)c(Cl)c2)nc(C(Cl)(Cl)Cl)n1)N(C)C (stereo not drawn) = inactive
O=S(=O)(NCCNc1cc(-c2cn(-c3ccccc3)nc2-c2cccc(O)c2)ccn1)c1ccc(Br)cc1 = inactive
COc1ccc(C(=O)/C=C/c2cc(-c3cc(OC)c(OC)c(OC)c3)n[nH]2)cc1OC = active

# fetch the recorded call for CCN(CC)C(=O)CCCCCn1c2ccccc2c2c3c(c4c5ccccc5[nH]c4c21)C(=O)N(O)C3=O here inactive

Dear colleague, could you share the recorded outcome for Cn1c(/C(C#N)=C/c2ccc3ccccc3c2)cc2ccccc21 when you have a moment? active

Check the results log: what was the call for Cc1cccc2c1NC(=O)[C@@]21[C@H](C(=O)c2ccccc2)[C@]2(C(=O)Nc3ccccc32)[C@H]2CCCN21 ? inactive

* * *

tested on: U251 CNS; assay: NCI-60 one-dose screen, 48 h; conditions: 10 µM unless noted
Compounds without any hit were thinned out: in the full panel of roughly 83,000, 20% have a hit. Activity calls are given as the source filed them. Rule for the calls: active = growth percent below 10; inactive = the rest.
Select the correct class. Options are active, inactive and nothing else.

Consider the worked cases shown below.
O=C(N/N=C/c1ccccc1SSc1ccccc1/C=N/NC(=O)c1ccccc1)c1ccccc1 = inactive
COc1ccc(-c2nc3ncccn3c2-c2nc3ccc(Br)cc3[nH]2)cc1 = inactive
COc1ccc(/C=C/C(=O)c2ccc([N+](=O)[O-])cc2)cc1 = inactive
O=C(CCCCCn1c2ccccc2c2c3c(c4c5ccccc5[nH]c4c21)C(=O)N(O)C3=O)N1CCOCC1 = inactive
Fc1ccc2nc(-c3cc(-c4ccc5c(c4)OCO5)n[nH]3)[nH]c2c1 = inactive

Hey, what did the test say about Cc1cc(Cl)nc(N(CCNc2ccnc3cc(Cl)ccc23)Cc2ccco2)n1 ? inactive

Hi team, can someone confirm the assay call for O=C1OC(c2ccc(Cl)c(Cl)c2)=C/C1=C/c1cccc([N+](=O)[O-])c1 ? inactive

What did this assay record as the result for COC(=O)C(Cc1ccccc1)n1cc(COc2nc(Cl)nc(Nc3ccc(Cl)cc3)n2)nn1 (centres undefined) ? inactive

What outcome does the record of this test show for COc1ccc(C2c3ccccc3NC(=O)N2C2CCN(C)CC2)c(OC)c1 (centres undefined) ? inactive

Called result for COc1cc(NC(C)CN(CC(C)C)C(C)C)c2ncccc2c1 (centres undefined) inactive

For CCC1C(=O)COC1=O (centres undefined) , what call appears in the results of this test? inactive

Any idea what this test logged for COc1ccc(NC(=S)N/N=C/c2ccccc2SSCCC(=O)OC[C@H]2O[C@H](O)[C@H](O)[C@@H](O)[C@@H]2O)cc1 ? inactive

Assay outcome for Nc1c2c(nc3ccc(Cl)cc13)CC(c1ccccc1)CC2=O (centres undefined) : what was it? inactive

// param item: CCC(c1ccc(OC)cc1)C(CC)c1ccc(O)c(CN2CCCCC2)c1 (centres undefined) ; yields the recorded call inactive

Returns: the outcome recorded for Cc1cccc2c1NC(=O)[C@@]21[C@H](C(=O)c2ccccc2)[C@]2(C(=O)Nc3ccccc32)[C@H]2CCCN21 in this assay. active

Call for entry COc1cc(-c2cc(-c3nc4cc(Cl)c(Cl)cc4[nH]3)[nH]n2)cc(OC)c1OC : inactive

What is the recorded call for this compound in the test? COc1cc(/C=C2\C(=O)N(CC(O)COc3cc(O)c4c(=O)cc(-c5ccccc5)oc4c3)c3ccccc32)cc(OC)c1O (centres undefined) inactive

Hello, I am checking results. What call was entered for Cc1cc2nc3c4cc([N+](=O)[O-])cc([N+](=O)[O-])c4n(CCN(C)C)c3nc2cc1C ? inactive

For this compound, state the assay outcome: C=C(C)[C@@H]1CC[C@]2(C=O)CC[C@]3(C)[C@H](CC[C@@H]4[C@@]5(C)C/C(=C/c6cccnc6)C(=O)C(C)(C)[C@@H]5CC[C@]43C)[C@@H]12 inactive
